experiment: yeast display, Sf9 membrane polyspecificity reagent, FACS + sequencing; frameworks hold sequencing errors
resultType: polyreactivity (PSR sort gate)

[[record]]
sequence = "QVQLVESGGGLVQAGGSLRLICAASGSIFGSSAMGWYRQAPGKERSTYYADSVKGRFTISRDNAKNTVYLQMNSLKPEDTAVYYCAADTYGYQGSAGGHWGQGTQVTVSS"
result = "low polyreactivity"

[[record]]
sequence = "QVQLVESGGCLVQAGGSLRLSCAASGSTLSYYAMGWYRQAPGKERELVAAINKSVTRTYYADSVKGRFTISRDNAKNTVYLQMNSLKPEDTAVYYCAASVPYYNGYYYNAYEYWGQGTQVTVSS"
result = "high polyreactivity"

[[record]]
sequence = "QVQLVESGGGLVQAGGSLRLSCAASGRTFTIYAMGWYRQAPGKERDLVAAITRSGGGTYYADSVKGRFTISRDNAKNTVYLQMNRLKPEDTAVYYCARDKHWFYGVIGPEDYWGQGTQVTVSS"
result = "low polyreactivity"

[[record]]
sequence = "QVQLVESGGGLVQAGGSLRLSSGASGLTIRRYAMGWSRQAPGKEREFVATISQNGGRTYYADSVKGRFTISRDNAKNTFYLQMNSLKPEDTAVYYCAAEDWRWGYDYWGQGTQVTVSS"
result = "high polyreactivity"

[[record]]
sequence = "QVQLVESGGGLVQAGGSLRLSCAASGFIFGGNVMGWYRQAPGKEREFVAAITDGDGSTYYADSVKGRFTISRDNAKNTVYLQMNSLKPEDTAVYYCAADVYYADVYPVEYWGQGTQVTVSS"
result = "high polyreactivity"

[[record]]
sequence = "QVQLVESGGGLVQAGGSLRLSCAASGIIFRDNDMGWYRQAPGKERELVASISDSGGSTYYADSVKGRFTISRDNAKNTVYLQMNSLKPEDTAVYYCAAPYLSLYWYDYWGQGTQVTVSS"
result = "low polyreactivity"

[[record]]
sequence = "QVQLVEAGGGLVKAGGSLRLSCAASGYIFRFYALGWYRQAPGKERELVAAISRSGSRTYYADSVKGRFTISRDNAKNTVYLQMNSLKPEDTAVYYCAAVTRGLRFDYWGQGTQVTVSS"
result = "high polyreactivity"

[[record]]
sequence = "QVQLVESGGGVVQAGGSLRLRCAASGSTVLGYVMGWYRQAPGKERELVAAITRSGGRTYYADSVQGRFTISRDNAKNTVSLQMNSLKPEETAVYYCAALRGPSFHGYGYWGQGTQVTVSS"
result = "high polyreactivity"

[[record]]
sequence = "QVQLVESGGGLVQAGGSLRLTCAASGYIFGIYAMGWYRQAPGKERELVAAITTSSGSTYADSVKGRFTISRDNAKNTVYLQMNSLKPEDTAVYYCAADGYLYSYPGHRRASYDYWGQGTQVTVSS"
result = "low polyreactivity"

[[record]]
sequence = "QVQLVESGGGLVQAGGSLRLSCAASGLTFRRYAMGWYRQAPGKDRELVAAISRGDNTNYADSVKGRFTISRDNAKNTVYLQMTSLKPEDTAVYFCAPRLWIRGNFNYWGQATQVTVSS"
result = "high polyreactivity"

[[record]]
sequence = "QVQLVESGGGLVQAGGSLRLSCAASGSIFTRNAMGWYRQAPGKERELVASISYSGGNTYYADSVKGRFTISRDNAKNTVYLQMNSLKPEDTAVYYCNARRWFYLLYGYDYWGQGTQVTVSS"
result = "high polyreactivity"

[[record]]
sequence = "QVLLQESGGGLVQAGGSLRLGCAASGTISPAYYMGRYHQAPGKEREFVAAITYGTNTYYADSEKGRFTISRDNAKNTVYLQMNSLKPEDTAVYYCSATAGYNGAHDYWGQVTQVTVSS"
result = "low polyreactivity"

